Target: GLP-1 receptor (human (printed as hGLP1R), UniProt P43220 24-463)
Assay: cell-based or functional assay
Starred links: 1 amine or outer side, 2 acyl side, 3 side chain; linkers in the order of their positions; H or OH if unused. Non-standard residues stand in square brackets, D forms with d. Groups on a side chain read outwards from the residue. No end group written: not given here. *: point of attachment. C20 diacid = O=C(O)CCCCCCCCCCCCCCCCCCC(=O)*; C18 diacid = O=C(O)CCCCCCCCCCCCCCCCC(=O)*; γGlu = O=C(O)[C@H](CCC(=O)[*:2])N[*:1]; AEEA = NCCOCCOCC(=O)O; Aib = CC(C)(N)C(=O)O
What EC50 hGLP1R 0.5% hP (CreLuc) was measured for each of the following?
Dear colleague, please return just the value in nM, with no unit written.

State its EC50 hGLP1R 0.5% hP (CreLuc) for this binder: Y[Aib]EGTFTSDYSI[Aib]LEKQAQ[Aib]AFVEWLIK([AEEA-AEEA-γGlu-γGlu-γGlu-γGlu-C18 diacid])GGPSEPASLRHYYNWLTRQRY-NH2 (also: TFA salt) [Compound 256] 0.18

State its EC50 hGLP1R 0.5% hP (CreLuc) for this binder: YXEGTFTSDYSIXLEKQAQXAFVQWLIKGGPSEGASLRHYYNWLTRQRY (Aib at 2, 13, 20; K28 side chain carries C20DA-gGlu-gGlu-gGlu-gGlu-gGlu-OEG-OEG; C-terminal amide) [Compound 228] 0.12

State its EC50 hGLP1R 0.5% hP (CreLuc) for this binder: YXEGTFTSDYSIXLELQAQXAFVEWLIKGGPSSGASLRHYYNWLTRQRY (Aib at 2, 13, 20; K28 side chain carries C20DA-gGlu-gGlu-gGlu-gGlu-gGlu-gGlu-eLys; C-terminal amide) [Compound 209] 0.48

State its EC50 hGLP1R 0.5% hP (CreLuc) for this binder: Y[Aib]EGTFTSDYSI[Aib]LEKQAQ[Aib]AFVEWLIK([AEEA-AEEA-γGlu-γGlu-γGlu-γGlu-C18 diacid])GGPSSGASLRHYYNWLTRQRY-NH2 (also: TFA salt) [Compound 254] 0.07

State its EC50 hGLP1R 0.5% hP (CreLuc) for this binder: YXEGTFTSDYSIXLEKQAQXAFVEWLIKGGPSSGASLRHYYXWLTRQRY (Aib at 2, 13, 20, 42; K28 side chain carries C20DA-gGlu-gGlu-gGlu-gGlu-gGlu-gGlu-eLys; C-terminal amide) [Compound 213] 0.16

State its EC50 hGLP1R 0.5% hP (CreLuc) for this binder: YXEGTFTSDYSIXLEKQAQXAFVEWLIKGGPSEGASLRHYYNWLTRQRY (Aib at 2, 13, 20; NMeQ (N-methyl-L-glutamine) at 47; K28 side chain carries C20DA-gGlu-gGlu-gGlu-gGlu-gGlu-gGlu-eLys; C-terminal amide) [Compound 222] 0.24

State its EC50 hGLP1R 0.5% hP (CreLuc) for this binder: Y[Aib]EGTFTSDYSI[Aib]LEKQAE[Aib]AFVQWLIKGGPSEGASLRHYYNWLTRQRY-NH2 (not fully specified (residue 28); also: TFA salt) [Compound 174] 0.22

State its EC50 hGLP1R 0.5% hP (CreLuc) for this binder: Y[Aib]EGTFTSDYSI[Aib]LEKQAQ[Aib]AFVEWLIK([γGlu-γGlu-γGlu-γGlu-γGlu-γGlu-C20 diacid])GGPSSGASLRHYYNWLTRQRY-NH2 (also: TFA salt) [Compound 235] 0.12

State its EC50 hGLP1R 0.5% hP (CreLuc) for this binder: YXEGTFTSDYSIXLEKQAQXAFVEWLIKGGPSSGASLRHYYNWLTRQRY (Aib at 2, 13, 20; K28 side chain carries C20DA-gGlu-gGlu-gGlu-gGlu-gGlu-gGlu-eLys; C-terminal amide) [Compound 221] 0.11

State its EC50 hGLP1R 0.5% hP (CreLuc) for this binder: YXEGTFTSDYSIXLEKQAQXAFVEWLIKGGPSEGESLRHYYNWLTRQRY (Aib at 2, 13, 20; K28 side chain carries C20DA-gGlu-gGlu-gGlu-gGlu-gGlu-gGlu-eLys; C-terminal amide) [Compound 237] 0.26
